EXPERIMENTAL_DETAILS: ATG_ERE_CIS: Attagene CIS-FACTORIAL HepG2 Assay for Estrogen Response Element (ERE) (AID 2282940)
PARTICULARS: HepG2 ERE cis-reporter, Attagene RNA transcript; actives raise or lower the signal
The source made the active and inactive calls. The calls were made as follows: active = hit-call score of the fitted dose curve at least 0.9, where 1 is the maximum; inactive = score below 0.9.
ASSAY_METRIC: AC50

MOLECULE	ENDPOINT_VALUE
CCCN(CCC)c1c([N+](=O)[O-])cc(C(F)(F)F)cc1[N+](=O)[O-]	inactive
CCOc1nc(NC)nc(NC(=O)NS(=O)(=O)c2ccccc2C(=O)OC)n1	inactive
O=[N+]([O-])/N=C1\NCCN1Cc1ccc(Cl)nc1	inactive
CNC(=O)Oc1ccccc1OC(C)C	inactive
CNC(=O)CSP(=S)(OC)OC	inactive
CC1(C)C(C=C(Cl)Cl)C1C(=O)OC(C#N)c1ccc(F)c(Oc2ccccc2)c1 (stereo unspecified)	inactive
COC(=O)c1ccccc1S(=O)(=O)NC(=O)N(C)c1nc(C)nc(OC)n1	inactive
O=S1OCC2C(CO1)C1(Cl)C(Cl)=C(Cl)C2(Cl)C1(Cl)Cl (stereo unspecified)	1.72 µM (active)
Cc1cc(C)nc(NC(=O)NS(=O)(=O)c2ccccc2C(=O)OC2COC2)n1	71 µM (active)
N#Cc1c(Cl)c(Cl)c(Cl)c(C#N)c1Cl	inactive
CCN(CC)C(=O)SCc1ccc(Cl)cc1	inactive
